Assay: General cytotoxicity on HepG2 cells
Assay type: cell-based
Conditions: human; general cytotoxicity, HepG2 cells, 72 hours, average of several tests
Below is a list of entries, each paired with its recorded CC50 at 72 h value.

Compound: C=CC(=O)Nc1cc(Nc2nccc(C(=O)c3ccc(N4CCCC4)cc3OC)n2)c(OC)cc1N(C)CCN(C)C [EGFR_3365_123]
Readout value: 40 µM

Qu. Look up CC50 at 72 h: C=CC(=O)Nc1cc(Nc2cc(C(=O)c3ccc(N(C)C)cc3)ccn2)c(OC)cc1N(C)CCN(C)C.O=C(O)C(F)(F)F [EGFR_3365_4, 2,2,2-trifluoroacetate]
Ans. 14.8 µM

Qu. Now consider C=CC(=O)Nc1cc(Nc2nccc(C(=O)c3ccc(N4CCCCC4)cc3OC)n2)c(OC)cc1N(C)CCN(C)C [EGFR_3365_122] .
Ans. 12.6 µM

Qu. Now consider C=CC(=O)Nc1cc(Nc2nccc(C(=O)c3ccc(OCC)cc3)n2)c(OC)cc1N(C)CCN(C)C [EGFR_3365_29] .
Ans. 30.6 µM

Qu. Now consider C=CC(=O)Nc1cc(Nc2nccc(C(=O)c3ccc(OC4CCCCC4)cc3)n2)c(OC)cc1N(C)CCN(C)C [EGFR_3365_67] .
Ans. 9.46 µM

Qu. Now consider C=CC(=O)Nc1cc(Nc2nccc(C(=O)c3ccc(N4CC[C@H](O)C4)cc3)n2)c(OC)cc1N(C)CCN(C)C.O=CO [EGFR_3365_112, formate] .
Ans. > 50 µM
